- System: SK-OV-3 ovarian
- assay name: NCI-60 one-dose screen, 48 h
- measurement context: 10 µM unless noted
About 83,000 compounds went through this panel and 20% of them were active in at least one assay; those are over-represented in the sample as a whole. Activity calls are given as the source filed them. Rule for the calls: active = growth percent below 10; inactive = the rest.
The reply should be one of these categories: 1 = active, 0 = inactive

Query :: // return assay outcome for NS(=O)(=O)c1ccc(Nc2cc(-c3ccccc3)nc(SCC(=O)c3ccccc3)n2)cc1
Result :: 0

Query :: // return assay outcome for COc1c(N2CC3CCCNC3C2)c(F)cc2c(=O)c(C(=O)N/N=C/c3ccccc3)cn(C3CC3)c12 (configuration not stated)
Result :: 0

Query :: // return assay outcome for COCCNc1ccc2ncc(C#Cc3cncc(C(=O)Nc4ccc(CN5CCN(C)CC5)c(C(F)(F)F)c4)c3)n2n1
Result :: 1
